# Test system: UO-31 renal
# ASSAY_TEXT: NCI-60 one-dose screen, 48 h
# CONDITION_NOTES: 10 µM unless noted
# Protocol: Growth inhibition of the UO-31 human tumor cell line is measured as a screen for anti-cancer activity. Cells are grown in 96 well plates and exposed to the test compound for 48 hours. Compounds are tested at a single concentration, which is 10^-5 M for most compounds. The reported endpoint is percent growth (GI% or GIPRCNT), where numbers from 0 - 100% represent growth inhibition, and numbers from -100% - 0 represent cell death. For example, a value of 40 represents 60% growth inhibition. […]
About 83,000 compounds went through this panel and 20% of them were active in at least one assay; those are over-represented in the sample as a whole. The source made the active and inactive calls. The calls were made as follows: active = growth percent below 10; inactive = the rest.
Entry note: the call must match one of T for active, F for inactive

For this molecule, state the assay outcome: "O=C(O)COc1ccc2c(=O)c3sc4c(=O)c5ccccc5c(=O)c4c3c(=O)c2c1"
F

For this molecule, state the assay outcome: "C=C(C)[C@@H]1CC[C@]2(C(=O)O)CC[C@]3(C)[C@H](CC[C@@H]4[C@@]5(C)C[C@@H](CC#Cc6ccc(Cl)cc6)C(=O)C(C)(C)[C@@H]5CC[C@]43C)[C@@H]12"
F

For this molecule, state the assay outcome: C1=CC2=CC=C3C=CC=C4C(c5nc6c7ccccc7c7ccccc7c6[nH]5)=CC(=C1)C2C34 (stereo not given)
F

For this molecule, state the assay outcome: COc1ccc(C2=NN(c3ccc(S(N)(=O)=O)cc3)C(c3ccc(Cl)cc3)C2)c(O)c1 (stereo not given)
F

For this molecule, state the assay outcome: "COc1cc(/C=C/C(=O)/C=C/c2cc3ccc(Cl)cc3n(Cc3ccccc3)c2=O)ccc1O"
T

###

# Test system: TK-10 renal
# ASSAY_TEXT: NCI-60 one-dose screen, 48 h (100 = growth as untreated, 0 = no growth, -100 = all killed)
# CONDITION_NOTES: 10 µM unless noted
# Description: Growth inhibition of the TK-10 human tumor cell line is measured as a screen for anti-cancer activity. Cells are grown in 96 well plates and exposed to the test compound for 48 hours. Compounds are tested at a single concentration, which is 10^-5 M for most compounds. The reported endpoint is percent growth (GI% or GIPRCNT), where numbers from 0 - 100% represent growth inhibition, and numbers from -100% - 0 represent cell death. For example, a value of 40 represents 60% growth inhibition. […]
Compounds without any hit were thinned out: in the full panel of roughly 83,000, 20% have a hit. The source made the active and inactive calls. How the source made its calls: active means growth percent below 10; inactive means the rest.
Exercise: state measured growth for each of the molecules provided.

In one line, give reported growth of the entry "Cc1c(O)c(=O)ccn1-c1nc2ccccc2s1" .
91.2% (inactive)

In one line, give reported growth of the entry "O=[N+]([O-])c1cccc(CN(Cc2cccc([N+](=O)[O-])c2O)c2ccccc2)c1O" .
89.7% (inactive)

In one line, give reported growth of the entry "COc1cc(N=Nc2cc(S(=O)(=O)O)cc3cc(S(=O)(=O)O)cc(O)c23)c(C)cc1N=Nc1c(S(=O)(=O)O)cc2cc(Nc3ccccc3)ccc2c1O" .
91.1% (inactive)

###

# Test system: SK-OV-3 ovarian
# ASSAY_TEXT: NCI-60 one-dose screen, 48 h (100 = growth as untreated, 0 = no growth, -100 = all killed)
# CONDITION_NOTES: 10 µM unless noted
Compounds without any hit were thinned out: in the full panel of roughly 83,000, 20% have a hit.
# Condition met = growth below 90% (exclusive); Condition not met = growth at/above 90%

Bench note: check whether "CCCCn1c2cc(OCc3cn(-c4ccc(Cl)cc4)nn3)ccc2c2ccnc(C)c21" shows growth below 90%
Condition met

Bench note: check whether "COc1ccc(-c2cc(-c3nnc(SCC(=O)Nc4ccc(/C(C)=N\O)cc4)o3)c3ccccc3n2)cc1" shows growth below 90%
Condition not met

Bench note: check whether "Nc1c(C(=O)Nc2cccc3ccccc23)sc2nc3c(cc12)CCCCC3" shows growth below 90%
Condition met
